# Tested on: SN12C
# measurement-description: NCI tumour cell line growth inhibition, 48 h
Active and inactive are the calls of the source. No stated cut-off is given here; in the data, active = GI50 up to about 1.1 µM and inactive = higher.
experimental-readout: GI50

                                    compound  experimental_readout             observed
 0            CCC/C(Cl)=N\OC(=O)Nc1ccc(F)cc1                  GI50   16.7 µM (inactive)
 1  COc1cc(C2SCC(=O)N2c2ccc(NC(C)=O)cc2)cc(OC)c1OC (configuration not stated)                  GI50   81.5 µM (inactive)
 2  CCCCCCCCCC1CC(=O)NCC(=O)NC(C(C)C)C(=O)NC(CC(C)C)C(=O)NC(C)C(=O)NC(C(C)C)C(=O)O1 (configuration not stated)                  GI50   19.1 µM (inactive)
 3  O=C(N/N=C/C=C/c1ccccc1)c1ccccc1Nc1ccccc1C(=O)N/N=C/C=C/c1ccccc1                  GI50  > 100 µM (inactive)
 4  C=C1C(=O)O[C@@H]2C[C@@]3(C)CCCC(=C)[C@@H]3C[C@H]12.C=C1C(=O)O[C@@H]2C[C@@]3(C)CCC[C@H](C)C3=C[C@H]12                  GI50   1.69 µM (inactive)
 5  COc1ccc(C(=O)O[C@H]2[C@@H]3C=CO[C@@H](OC4OC(CO)C(O)C(O)C4O)[C@@H]3[C@@]3(CO)O[C@@H]23)cc1O (some centres not stated)                  GI50  > 100 µM (inactive)
 6  Cc1cnc2c(c1)C(=O)N(c1ccc(Oc3ccccc3)cc1)S2(=O)=O                  GI50  > 100 µM (inactive)
 7               NC(=O)c1cnc2sc3ccccc3n2c1=O                  GI50  > 100 µM (inactive)
 8  CC(N1CCOCC1)C(O)(c1ccccc1)c1ccccn1 (configuration not stated)                  GI50  > 100 µM (inactive)
 9  COC(=O)[C@H](Cc1ccccc1)NC(=O)N(CCC#N)CCN(C(=O)N[C@@H](Cc1ccccc1)C(=O)OC)c1ccccc1                  GI50   32.2 µM (inactive)
10  O=C(NC(=S)Nc1ccc2c(c1)Sc1ccccc1O2)c1ccccc1                  GI50   50.1 µM (inactive)
11  CCN(CC)Cc1cc(Nc2ccnc3ccc4nn(C)nc4c23)ccc1O                  GI50   11.3 µM (inactive)
12      COc1ccc(Cc2c(N)[nH]c(=O)n(C)c2=O)cc1                  GI50   42.8 µM (inactive)
13     Clc1ccc(Nc2nc3ccccc3nc2-c2cccs2)cc1Cl                  GI50   89.9 µM (inactive)
14  Oc1ccc(Br)cc1/C=N/c1c(NC2CCCCC2)oc2ccc(Br)cc12                  GI50   44.4 µM (inactive)
15                           CON(C)C(=O)CCCO                  GI50  > 100 µM (inactive)
16      CCOC(=O)Nc1ccc(S(=O)(=O)Nn2cnnc2)cc1                  GI50   53.1 µM (inactive)
17  Clc1ccc(OCc2nnc(CCCCCCCCc3nnc(COc4ccc(Cl)cc4)o3)o2)cc1                  GI50   43.8 µM (inactive)
18  Cc1cc2c(cc1C)[n+]([O-])c(C(=O)CC(=O)C(=O)Nc1ccccc1C)c(C)[n+]2[O-]                  GI50  > 100 µM (inactive)
19            Cc1ccc(-n2cnc(C(=N)C#N)c2N)cc1                  GI50  > 100 µM (inactive)
20  CC(=O)/C(=C\n1c(=S)[nH]c2ccc([N+](=O)[O-])cc21)C(=O)Nc1ccccc1C                  GI50  > 100 µM (inactive)
21  NS(=O)(=O)c1nnc(NC(=O)N(c2ccccc2)c2ccccc2)s1                  GI50   15.8 µM (inactive)
22  CN1CN(c2ccccc2)C2(CCN(C(=O)OC(C)(C)C)CC2)C1=O                  GI50  > 100 µM (inactive)
23  O=C(O)CCC/N=C(\C(=N\CCCC(=O)O)c1ccccc1)c1ccccc1                  GI50  > 100 µM (inactive)
24             Cc1cc2c(ccc3c(C)cc(=O)oc32)o1                  GI50  > 100 µM (inactive)
25  C(=C\c1ccccc1)/COc1ccccc1C(N1CCOCC1)n1nc2ccccc2n1 (configuration not stated)                  GI50    5.6 µM (inactive)
26    COc1ccc(OC)c2c1CC(C(=O)O)(C(=O)O)CC2=O                  GI50  > 100 µM (inactive)
27  CC1=C(C(=O)Nc2ccccc2)C(c2ccc(C)o2)C(C#N)=C(SCc2ccccc2)N1 (configuration not stated)                  GI50  > 100 µM (inactive)
28  O=C(/C=C/C1C(=O)NC(=O)NC1=O)CC(=O)C(=O)Nc1cc(Cl)c(Cl)cc1Cl                  GI50  > 100 µM (inactive)
29  CC1=C(Br)C(=O)C(C)=C(Br)C1=O.Cc1c(O)c(Br)c(C)c(O)c1Br                  GI50    1.8 µM (inactive)
30  C=Cc1ccc(C)[n+](C[Si](C)(C)O[Si](C)(C)C)c1                  GI50  > 100 µM (inactive)
31         Cc1nc2c(sc3nc4c(cc32)CCC4)c(=O)o1                  GI50   98.2 µM (inactive)
32              Cc1ccc(CSC(=N)Nc2ccccc2)cc1C                  GI50   18.9 µM (inactive)
33  O=NN1C(c2ccccc2)CC(=NO)CC1c1ccccc1 (configuration not stated)                  GI50  > 100 µM (inactive)
34  COc1ccc(C(=O)C#Cc2cn(C3CC(O)C(CO)O3)c(=O)[nH]c2=O)cc1 (configuration not stated)                  GI50   28.7 µM (inactive)
35  CC1(C)OP(=O)(c2ccccc2)C=C1Br (configuration not stated)                  GI50  > 100 µM (inactive)
36  O=c1nc(Oc2c(F)c(F)c(F)c(F)c2F)ccn1C1OC(CO)C(O)C1O (configuration not stated)                  GI50  > 100 µM (inactive)
37         CN(CC(=O)O)Cc1c(O)c(Cl)cc(Cl)c1Cl                  GI50     47 µM (inactive)
38  C=C1CCC2[C@@H](CCC3[C@]2(C)CCC[C@]3(C)C(=O)OC)[C@@H]1CC=O (some centres not stated)                  GI50   30.3 µM (inactive)
39   O=c1[nH]nc(Nc2ccccc2)c2nnn(C3CCCCC3)c12                  GI50  > 100 µM (inactive)
40  CCOC(=O)CCc1cccc2c1oc1c(CCNC(=O)OCC3c4ccccc4-c4ccccc43)cccc12                  GI50  > 100 µM (inactive)
41  CCOC(=O)/C(=N\OC)C(O)C(F)(F)F (configuration not stated)                  GI50  > 100 µM (inactive)
